- assaySystem: CYP1A1 (Homo sapiens (Human), UniProt P04798)
- Sequence (P04798 whole entry): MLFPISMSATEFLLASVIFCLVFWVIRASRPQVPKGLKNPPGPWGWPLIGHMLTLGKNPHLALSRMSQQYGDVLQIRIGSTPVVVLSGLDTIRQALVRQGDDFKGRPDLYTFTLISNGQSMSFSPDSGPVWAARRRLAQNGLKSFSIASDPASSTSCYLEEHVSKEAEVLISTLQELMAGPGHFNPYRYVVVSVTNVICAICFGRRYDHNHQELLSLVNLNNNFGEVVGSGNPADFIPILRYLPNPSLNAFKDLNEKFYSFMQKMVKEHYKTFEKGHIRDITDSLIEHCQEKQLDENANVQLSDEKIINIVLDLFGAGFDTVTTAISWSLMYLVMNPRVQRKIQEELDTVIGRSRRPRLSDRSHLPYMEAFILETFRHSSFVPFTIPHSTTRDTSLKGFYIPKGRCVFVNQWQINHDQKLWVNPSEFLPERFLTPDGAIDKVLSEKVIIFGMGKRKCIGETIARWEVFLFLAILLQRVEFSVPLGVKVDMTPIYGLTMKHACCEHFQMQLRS
- experimentDescription: CYP1A1 inhibition assay (Promega P450-Glo, Cypex bactosomes)
- Type: biochemical
- measurementContext: direct CYP1A1 inhibition, Luciferin-CEE 30 μM, NADPH, 37° C., arithmetic mean of pIC50
- Description: In Vitro Assay 22: […] Inhibition Assay The direct CYP1A1 inhibitory activity of test compounds was also assessed using the Promega P450-Glo™ assay system. Seven concentrations of test compound were added to a ½ area white 96 well plate. […] The reaction was stopped by adding luciferin detection reagent and luminescence was read after 20 minutes.
measuredParameter: cyp1A1 pIC50

Fc1cncc(-c2nc3c(c(NCCc4c[nH]c5ccccc45)n2)CNC3)c1 [Example 24]	6.60
CC1(C)NCCc2c(NCCc3c[nH]c4ccccc34)nc(-c3cncc(F)c3)nc21 [Example 18b]	5.90
Clc1cncc(-c2nc3c(c(NCCc4c[nH]c5ccccc45)n2)CNCC3)c1 [Example 27]	7.2
Cc1cncc(-c2nc3c(c(NCCc4c[nH]c5ccccc45)n2)CNCC3)c1 [Example 26]	7.2
Fc1cncc(-c2nc3c(c(NCCc4nc5ccccc5[nH]4)n2)CCNC3)c1 [Example 19]	5.10
Fc1cncc(-c2nc3c(c(NCCc4c[nH]c5ccc(F)cc45)n2)CNCC3)c1 [Example 32]	7.1
CNC(=O)N1CCc2c(nc(-c3cncc(F)c3)nc2NCCc2c[nH]c3ccccc23)C1 [Example 14]	6.10
CCN1CCc2nc(-c3cncc(F)c3)nc(NCCc3c[nH]c4ccccc34)c2CC1 [Example 17b]	6.10
CN(C)S(=O)(=O)N1CCc2c(nc(-c3cncc(F)c3)nc2NCCc2c[nH]c3ccccc23)C1 [Example 12]	6.10
Fc1cncc(-c2nc3c(c(NCCc4nc5ccccc5[nH]4)n2)CNCC3)c1 [Example 28]	5.5
Cc1cncc(-c2nc3c(c(NCCc4c[nH]c5ccccc45)n2)CCNC3)c1 [Example 20]	6.40
CN(C)C(=O)N1CCc2c(nc(-c3cncc(F)c3)nc2NCCc2c[nH]c3ccccc23)C1 [Example 13]	5.70
c1cncc(-c2nc3c(c(NCCc4c[nH]c5ccccc45)n2)CNCC3)c1 [Example 7]	6.70
Fc1cncc(-c2nc3c(c(NCCc4c[nH]c5cc(F)ccc45)n2)CCNC3)c1 [Example 29]	6.7
Fc1cncc(-c2nc3c(c(NCCc4c[nH]c5ccccc45)n2)CNCC3)c1 [Example 21]	6.40
N#Cc1cncc(-c2nc3c(c(NCCc4c[nH]c5ccccc45)n2)CCNC3)c1 [Example 23]	6.70
Fc1cncc(-c2nc3c(c(NCCc4c[nH]c5ccccc45)n2)CCNCC3)c1 [Example 17a]	6.20
CC(=O)N1CCc2c(nc(-c3cncc(F)c3)nc2NCCc2c[nH]c3ccccc23)C1 [Example 1]	6.00
CS(=O)(=O)N1CCc2c(nc(-c3cncc(F)c3)nc2NCCc2c[nH]c3ccccc23)C1 [Example 2]	6.20

* * *

- assaySystem: AhR (Homo sapiens (Human))
- Sequence (P35869 11-848): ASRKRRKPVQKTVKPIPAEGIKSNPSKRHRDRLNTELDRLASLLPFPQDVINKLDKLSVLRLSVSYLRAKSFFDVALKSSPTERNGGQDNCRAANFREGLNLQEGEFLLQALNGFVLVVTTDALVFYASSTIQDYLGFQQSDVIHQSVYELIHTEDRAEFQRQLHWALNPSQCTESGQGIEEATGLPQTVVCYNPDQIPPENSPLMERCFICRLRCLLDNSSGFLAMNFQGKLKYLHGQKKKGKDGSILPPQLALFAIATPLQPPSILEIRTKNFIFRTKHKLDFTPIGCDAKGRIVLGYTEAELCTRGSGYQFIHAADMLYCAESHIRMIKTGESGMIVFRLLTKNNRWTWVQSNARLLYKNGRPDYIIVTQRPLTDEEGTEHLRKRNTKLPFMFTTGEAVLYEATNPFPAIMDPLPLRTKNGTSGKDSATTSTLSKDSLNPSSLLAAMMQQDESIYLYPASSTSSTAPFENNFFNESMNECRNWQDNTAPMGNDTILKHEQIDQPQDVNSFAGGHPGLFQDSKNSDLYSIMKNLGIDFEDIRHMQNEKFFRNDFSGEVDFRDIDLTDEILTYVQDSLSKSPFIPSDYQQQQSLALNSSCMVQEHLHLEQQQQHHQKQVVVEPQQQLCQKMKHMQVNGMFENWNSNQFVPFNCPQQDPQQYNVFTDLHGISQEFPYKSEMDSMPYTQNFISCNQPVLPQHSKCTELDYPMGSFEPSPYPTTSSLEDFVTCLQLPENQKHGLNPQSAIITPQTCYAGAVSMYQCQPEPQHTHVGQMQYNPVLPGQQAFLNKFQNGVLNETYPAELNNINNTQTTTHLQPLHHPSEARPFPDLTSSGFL
- experimentDescription: AhR antagonism in U937 cells (Promega P450-Glo assay)
- Type: cell-based
- measurementContext: inhibition of agonist (KYNA) response, CYP1A1 activity readout (Luciferin-CEE), 24 hrs, arithmetic mean of pIC50
pIC50: −log10 of the molar value.
measuredParameter: pIC50

N#Cc1cncc(-c2nc3c(c(NCCc4c[nH]c5ccccc45)n2)CCNC3)c1	8.00

[I] c1cncc(-c2nc3c(c(NCCc4c[nH]c5ccccc45)n2)CCNC3)c1
[II] CN(C)S(=O)(=O)N1CCc2c(nc(-c3cncc(F)c3)nc2NCCc2c[nH]c3ccccc23)C1
[III] CC(C)N1CCc2c(nc(-c3cncc(F)c3)nc2NCCc2c[nH]c3ccccc23)C1
Task item: Rank order required: pIC50, descending. Present the labels in the sequence the task asks for.
Reply: II, III, I

[I] Cc1cncc(-c2nc3c(c(NCCc4c[nH]c5ccccc45)n2)CCNC3)c1
[II] c1cncc(-c2nc3c(c(NCCc4c[nH]c5ccccc45)n2)CNCC3)c1
Task item: I or II : whose pIC50 is greater? Reply with the label of the item you choose.
Reply: II
